These data points were gathered from ChEMBL document CHEMBL1143953.

Test: Plasma concentration in Sprague-Dawley rat at 50 mg/kg, po after 24 hrs
Assay type: ADME, organism-based
Design: dose 50 mg/kg, route oral
measure: concentration at 24 h (nM)
Answers are plain numbers, in nM.

Given Nc1nccn2c1c(-c1ccc3ccc(-c4ccccc4)nc3c1)nc2[C@H]1C[C@@H](CN2CCC2)C1 , respond with its concentration at 24 h.
900

###

Experiment: Volume of distribution at steady state in Sprague-Dawley rat at 1 mg/kg, iv
Format: ADME, organism-based
Parameters: dose 1 mg/kg, route intravenous
Conditions: in vivo, read-out: Vdss
measure: Vd (L/kg)
Give bare numbers, in L/kg.

Tell us which Vd value is on record for Nc1nccn2c1c(-c1ccc3ccc(-c4ccccc4)nc3c1)nc2[C@H]1C[C@@H](CN2CCC2)C1
14

###

Assay: Clearance in Beagle dog at 2.5 mg/kg, iv
Format: ADME, organism-based, Canis lupus familiaris
Design: dose 2.5 mg/kg, route intravenous
Conditions: in vivo
measure: clearance (mL/min/kg)
One number for each entry, in mL/min/kg.

Indicate its recorded clearance; the compound in question is Nc1nccn2c1c(-c1ccc3ccc(-c4ccccc4)nc3c1)nc2[C@H]1C[C@@H](CN2CCC2)C1
30

###

Experiment: Volume of distribution at steady state in Beagle dog at 2.5 mg/kg, iv
Assay type: ADME, organism-based, Canis lupus familiaris
Design: dose 2.5 mg/kg, route intravenous
Details: in vivo, read-out: Vdss
measure: Vd (L/kg)
Numbers only, in L/kg.

Please look at this molecule and report its Vd: Nc1nccn2c1c(-c1ccc3ccc(-c4ccccc4)nc3c1)nc2[C@H]1C[C@@H](CN2CCC2)C1
50

###

Molecular target: Protein kinase C alpha type (Homo sapiens, UniProt P17252)
measure: IC50

Kindly indicate its recorded IC50. Item: Nc1nccn2c1c(-c1ccc3ccc(-c4ccccc4)nc3c1)nc2[C@H]1C[C@@H](CN2CCC2)C1
> 10 µM

###

Assay: Cmax in CD1 mouse at 25 mg/kg, po
Type: ADME, organism-based
Set-up: dose 25 mg/kg, route oral
Conditions: in vivo
measure: Cmax (µM)
Numbers only, in µM.

Give the reported Cmax for this compound. Nc1nccn2c1c(-c1ccc3ccc(-c4ccccc4)nc3c1)nc2[C@H]1C[C@@H](CN2CCC2)C1
3.4

###

Target: Tyrosine-protein kinase Fyn (Homo sapiens, UniProt P06241)
Sequence (P06241 whole entry): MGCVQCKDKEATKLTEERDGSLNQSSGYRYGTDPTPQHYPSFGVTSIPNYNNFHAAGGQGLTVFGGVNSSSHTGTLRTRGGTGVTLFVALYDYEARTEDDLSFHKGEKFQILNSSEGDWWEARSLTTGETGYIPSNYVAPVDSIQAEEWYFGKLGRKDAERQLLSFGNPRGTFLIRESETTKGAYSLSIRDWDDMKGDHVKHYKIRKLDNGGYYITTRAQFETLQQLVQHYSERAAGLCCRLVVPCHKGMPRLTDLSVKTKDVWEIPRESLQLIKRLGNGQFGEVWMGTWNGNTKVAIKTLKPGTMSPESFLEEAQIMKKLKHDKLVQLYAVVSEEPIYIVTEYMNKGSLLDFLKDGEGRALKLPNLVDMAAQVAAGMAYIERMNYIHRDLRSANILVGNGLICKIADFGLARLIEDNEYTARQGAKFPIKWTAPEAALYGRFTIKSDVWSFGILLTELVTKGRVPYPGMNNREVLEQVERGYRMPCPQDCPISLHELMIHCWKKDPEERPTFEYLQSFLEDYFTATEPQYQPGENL
pIC50: −log10 of the molar value.
measure: pIC50

Supply measured pIC50 of Nc1nccn2c1c(-c1ccc3ccc(-c4ccccc4)nc3c1)nc2[C@H]1C[C@@H](CN2CCC2)C1 in your reply.
< 5.00

###

Experiment: Volume of distribution at steady state in CD1 mouse at 5 mg/kg, iv
Type: ADME, organism-based
Parameters: dose 5 mg/kg, route intravenous
Conditions: in vivo, read-out: Vdss
measure: Vd (L/kg)
Give bare numbers, in L/kg.

Find the measured Vd of Nc1nccn2c1c(-c1ccc3ccc(-c4ccccc4)nc3c1)nc2[C@H]1C[C@@H](CN2CCC2)C1 and report it.
10

###

Experiment: Inhibition of CDK2/cyclin A
measure: IC50

Name the recorded IC50 of the item Nc1nccn2c1c(-c1ccc3ccc(-c4ccccc4)nc3c1)nc2[C@H]1C[C@@H](CN2CCC2)C1 in your answer.
> 10 µM

###

Assay: Clearance in Sprague-Dawley rat at 1 mg/kg, iv
Assay type: ADME, organism-based
Set-up: dose 1 mg/kg, route intravenous
Settings: in vivo
measure: clearance (mL/min/kg)
Numbers only, in mL/min/kg.

Please look at this compound and report its clearance: Nc1nccn2c1c(-c1ccc3ccc(-c4ccccc4)nc3c1)nc2[C@H]1C[C@@H](CN2CCC2)C1
10

###

Target: Casein kinase II subunit alpha (Homo sapiens, UniProt P68400)
Sequence (P68400 whole entry): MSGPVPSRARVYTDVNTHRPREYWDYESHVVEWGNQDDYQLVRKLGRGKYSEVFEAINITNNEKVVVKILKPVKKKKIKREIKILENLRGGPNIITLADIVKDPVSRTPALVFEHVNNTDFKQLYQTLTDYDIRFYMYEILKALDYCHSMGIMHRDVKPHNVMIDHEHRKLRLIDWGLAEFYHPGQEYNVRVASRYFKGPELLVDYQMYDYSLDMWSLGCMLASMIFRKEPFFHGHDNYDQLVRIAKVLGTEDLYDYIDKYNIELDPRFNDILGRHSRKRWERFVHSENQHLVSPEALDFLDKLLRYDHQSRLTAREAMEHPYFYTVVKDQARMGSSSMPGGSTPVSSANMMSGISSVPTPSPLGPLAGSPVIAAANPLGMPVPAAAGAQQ
Assay: Inhibition of CK2
measure: IC50

Give the measured IC50 for Nc1nccn2c1c(-c1ccc3ccc(-c4ccccc4)nc3c1)nc2[C@H]1C[C@@H](CN2CCC2)C1
> 10 µM

###

Test: AUC (0 to infinity) in Sprague-Dawley rat at 50 mg/kg, po
Format: ADME, organism-based
Set-up: dose 50 mg/kg, route oral, time infinity
Settings: plasma
measure: AUC(0-inf)

Consider the compound Nc1nccn2c1c(-c1ccc3ccc(-c4ccccc4)nc3c1)nc2[C@H]1C[C@@H](CN2CCC2)C1 . State its measured AUC(0-inf).
37400 ng·h/mL

###

Biological target: Dual specificity mitogen-activated protein kinase kinase 1 (Homo sapiens)
Sequence (Q02750 whole entry): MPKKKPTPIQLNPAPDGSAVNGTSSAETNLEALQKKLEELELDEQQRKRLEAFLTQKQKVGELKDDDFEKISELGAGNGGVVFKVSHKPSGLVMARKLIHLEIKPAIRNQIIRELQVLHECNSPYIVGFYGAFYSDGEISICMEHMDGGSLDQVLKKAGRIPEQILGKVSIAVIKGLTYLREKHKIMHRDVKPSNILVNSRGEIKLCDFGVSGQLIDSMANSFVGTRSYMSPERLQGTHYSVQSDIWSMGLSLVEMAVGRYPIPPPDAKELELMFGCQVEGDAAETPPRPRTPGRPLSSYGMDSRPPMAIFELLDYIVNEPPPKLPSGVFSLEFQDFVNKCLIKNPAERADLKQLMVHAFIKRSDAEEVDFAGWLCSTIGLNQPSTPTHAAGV
Experiment: Inhibition of MEK1
measure: IC50

Given Nc1nccn2c1c(-c1ccc3ccc(-c4ccccc4)nc3c1)nc2[C@H]1C[C@@H](CN2CCC2)C1 , respond with its IC50.
> 10 µM

###

Test system: NIH3T3
Assay: Inhibition of IGF1-induced proliferation of human IGF1R expressing mouse 3T3 cells
Assay type: functional, cell-based
measure: pIC50
Numbers only, as −log10 of the molar value.

Give pIC50 only, for Nc1nccn2c1c(-c1ccc3ccc(-c4ccccc4)nc3c1)nc2[C@H]1C[C@@H](CN2CCC2)C1 , using NIH3T3 data.
7.30

###

Test: Inhibition of PKA
pIC50: −log10 of the molar value.
measure: pIC50

Report measured pIC50; entry is Nc1nccn2c1c(-c1ccc3ccc(-c4ccccc4)nc3c1)nc2[C@H]1C[C@@H](CN2CCC2)C1
< 5.00

###

Target: Tyrosine-protein kinase ABL1 (Homo sapiens)
Sequence (P00519 whole entry): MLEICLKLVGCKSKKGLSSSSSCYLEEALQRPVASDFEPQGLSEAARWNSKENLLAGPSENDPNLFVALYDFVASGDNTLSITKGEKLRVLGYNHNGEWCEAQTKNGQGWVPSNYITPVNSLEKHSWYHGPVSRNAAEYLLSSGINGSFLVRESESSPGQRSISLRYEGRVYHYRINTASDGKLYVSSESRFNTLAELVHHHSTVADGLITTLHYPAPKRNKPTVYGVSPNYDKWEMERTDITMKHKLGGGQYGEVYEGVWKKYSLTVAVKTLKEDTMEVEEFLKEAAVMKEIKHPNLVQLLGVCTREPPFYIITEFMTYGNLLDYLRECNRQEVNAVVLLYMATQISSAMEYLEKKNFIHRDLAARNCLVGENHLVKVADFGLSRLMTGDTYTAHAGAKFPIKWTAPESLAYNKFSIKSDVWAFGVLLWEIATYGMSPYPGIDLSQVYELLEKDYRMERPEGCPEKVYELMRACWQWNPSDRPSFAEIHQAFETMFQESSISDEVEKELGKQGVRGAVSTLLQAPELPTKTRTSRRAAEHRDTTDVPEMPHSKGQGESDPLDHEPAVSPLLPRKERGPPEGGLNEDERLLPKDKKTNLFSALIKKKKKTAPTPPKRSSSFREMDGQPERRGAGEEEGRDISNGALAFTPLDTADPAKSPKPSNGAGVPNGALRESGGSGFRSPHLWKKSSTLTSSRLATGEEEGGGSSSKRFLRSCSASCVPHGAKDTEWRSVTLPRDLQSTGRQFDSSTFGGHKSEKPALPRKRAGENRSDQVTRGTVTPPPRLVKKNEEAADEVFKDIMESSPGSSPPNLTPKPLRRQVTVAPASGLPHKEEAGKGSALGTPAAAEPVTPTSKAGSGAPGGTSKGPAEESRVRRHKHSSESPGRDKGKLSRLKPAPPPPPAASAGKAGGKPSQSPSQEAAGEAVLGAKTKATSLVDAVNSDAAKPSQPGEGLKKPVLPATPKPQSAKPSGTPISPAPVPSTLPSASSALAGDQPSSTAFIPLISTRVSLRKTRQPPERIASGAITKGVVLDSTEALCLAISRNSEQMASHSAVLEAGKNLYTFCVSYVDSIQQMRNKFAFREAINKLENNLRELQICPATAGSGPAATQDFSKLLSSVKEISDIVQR
Assay: Inhibition of Abl
measure: IC50

Entry Nc1nccn2c1c(-c1ccc3ccc(-c4ccccc4)nc3c1)nc2[C@H]1C[C@@H](CN2CCC2)C1 needs its IC50 filled in; supply it.
> 10 µM

###

Assay: AUC (0 to infinity) in Beagle dog at 5 mg/kg, po
Format: ADME, organism-based, Canis lupus familiaris
Parameters: time infinity, dose 5 mg/kg, route oral
Details: plasma
measure: AUC(0-inf) (ng·h/mL)
Numbers only, in ng·h/mL.

Return AUC(0-inf) for the following compound: Nc1nccn2c1c(-c1ccc3ccc(-c4ccccc4)nc3c1)nc2[C@H]1C[C@@H](CN2CCC2)C1
3010

###

Molecular target: Insulin receptor (Homo sapiens)
Sequence (P06213 28-758 limits assumed): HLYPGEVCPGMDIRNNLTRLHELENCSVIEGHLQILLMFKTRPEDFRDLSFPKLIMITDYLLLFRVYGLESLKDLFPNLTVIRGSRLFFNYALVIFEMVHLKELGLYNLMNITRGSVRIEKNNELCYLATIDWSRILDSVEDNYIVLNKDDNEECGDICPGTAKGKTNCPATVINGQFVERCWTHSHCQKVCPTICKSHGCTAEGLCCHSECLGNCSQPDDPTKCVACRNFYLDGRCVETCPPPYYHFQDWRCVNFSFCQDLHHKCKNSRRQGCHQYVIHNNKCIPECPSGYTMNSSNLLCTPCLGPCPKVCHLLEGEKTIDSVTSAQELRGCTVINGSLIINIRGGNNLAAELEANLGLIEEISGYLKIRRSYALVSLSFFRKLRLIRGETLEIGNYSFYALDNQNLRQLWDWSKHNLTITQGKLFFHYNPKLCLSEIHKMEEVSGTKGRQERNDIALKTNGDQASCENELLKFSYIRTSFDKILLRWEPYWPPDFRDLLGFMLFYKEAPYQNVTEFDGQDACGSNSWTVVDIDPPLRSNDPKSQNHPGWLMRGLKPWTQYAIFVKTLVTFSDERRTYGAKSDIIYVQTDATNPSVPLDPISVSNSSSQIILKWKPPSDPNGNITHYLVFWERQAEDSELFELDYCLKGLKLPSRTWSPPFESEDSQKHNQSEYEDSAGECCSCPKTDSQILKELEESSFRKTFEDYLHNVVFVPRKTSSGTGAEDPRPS
Sequence (P06213 763-1382 limits assumed): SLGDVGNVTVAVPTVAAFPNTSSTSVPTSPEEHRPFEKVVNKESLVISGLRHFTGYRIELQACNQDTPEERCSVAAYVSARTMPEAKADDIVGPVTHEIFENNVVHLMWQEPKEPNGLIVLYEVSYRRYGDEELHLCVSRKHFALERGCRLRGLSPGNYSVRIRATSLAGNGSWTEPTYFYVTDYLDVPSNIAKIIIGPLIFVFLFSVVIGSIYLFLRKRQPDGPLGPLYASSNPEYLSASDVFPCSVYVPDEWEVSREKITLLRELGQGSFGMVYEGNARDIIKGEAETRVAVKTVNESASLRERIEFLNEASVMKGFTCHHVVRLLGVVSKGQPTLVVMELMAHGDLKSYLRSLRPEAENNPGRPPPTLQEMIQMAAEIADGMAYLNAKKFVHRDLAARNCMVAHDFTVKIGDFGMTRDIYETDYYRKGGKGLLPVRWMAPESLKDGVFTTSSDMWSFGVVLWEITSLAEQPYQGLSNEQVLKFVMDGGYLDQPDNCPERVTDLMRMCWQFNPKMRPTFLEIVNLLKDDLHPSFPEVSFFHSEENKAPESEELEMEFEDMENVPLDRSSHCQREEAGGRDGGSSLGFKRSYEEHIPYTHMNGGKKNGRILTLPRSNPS
measure: IC50 (nM)
Answers are plain numbers, in nM.

Report IC50 for Nc1nccn2c1c(-c1ccc3ccc(-c4ccccc4)nc3c1)nc2[C@H]1C[C@@H](CN2CCC2)C1
76

###

Assay: Oral bioavailability in Beagle dog at 5 mg/kg
Format: ADME, organism-based, Canis lupus familiaris
Details: in vivo
measure: bioavailability (%)
One number for each entry, in %.

Give the measured bioavailability for Nc1nccn2c1c(-c1ccc3ccc(-c4ccccc4)nc3c1)nc2[C@H]1C[C@@H](CN2CCC2)C1
94

###

Assay: Clearance in CD1 mouse at 5 mg/kg, iv
Format: ADME, organism-based
Set-up: dose 5 mg/kg, route intravenous
Details: in vivo
measure: clearance (L/h/kg)
Give bare numbers, in L/h/kg.

Assign clearance to the following record: Nc1nccn2c1c(-c1ccc3ccc(-c4ccccc4)nc3c1)nc2[C@H]1C[C@@H](CN2CCC2)C1
1.44

###

Provide the reported IC50 of each item.
Molecular target: Cytochrome P450 3A4 (Homo sapiens)
Sequence (P08684 whole entry): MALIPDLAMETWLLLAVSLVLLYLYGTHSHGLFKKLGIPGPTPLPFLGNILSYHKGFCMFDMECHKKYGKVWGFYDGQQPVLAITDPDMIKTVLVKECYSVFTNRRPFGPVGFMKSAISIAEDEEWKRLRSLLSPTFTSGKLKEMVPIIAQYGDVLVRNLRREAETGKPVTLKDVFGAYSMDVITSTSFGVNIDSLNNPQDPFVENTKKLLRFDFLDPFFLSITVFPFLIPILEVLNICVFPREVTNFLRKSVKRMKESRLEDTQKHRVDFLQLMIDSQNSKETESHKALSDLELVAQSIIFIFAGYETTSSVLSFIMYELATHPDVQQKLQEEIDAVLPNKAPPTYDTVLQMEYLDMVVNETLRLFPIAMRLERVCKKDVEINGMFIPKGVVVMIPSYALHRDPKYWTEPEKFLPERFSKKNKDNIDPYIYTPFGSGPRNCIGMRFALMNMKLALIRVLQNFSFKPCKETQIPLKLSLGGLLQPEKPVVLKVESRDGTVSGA
Answers are plain numbers, in µM.

Reference set, count: 2
structure notation: Nc1nccn2c1c(-c1ccc3ccc(-c4ccccc4)nc3c1)nc2[C@H]1C[C@@H](N2CCCC2)C1
units label: µM
measured: 17

structure notation: Nc1nccn2c1c(-c1ccc3ccc(-c4ccccc4)nc3c1)nc2[C@H]1C[C@H](CN2CCC2)C1
units label: µM
measured: 17

// moving on: another record for IC50
Provide one value: measured IC50 of Nc1nccn2c(C3CCC3)nc(-c3ccc4ccc(-c5ccccc5)nc4c3)c12
3.4

###

Assay: Inhibition of CDK1/cyclin B
pIC50: −log10 of the molar value.
measure: pIC50

Return value of pIC50 for input Nc1nccn2c1c(-c1ccc3ccc(-c4ccccc4)nc3c1)nc2[C@H]1C[C@@H](CN2CCC2)C1 , no commentary.
< 5.00

###

Assay: Plasma concentration in Beagle dog at 5 mg/kg, po after 24 hrs
Assay type: ADME, organism-based, Canis lupus familiaris
Design: dose 5 mg/kg, route oral
measure: concentration at 24 h

Recall and state the measured concentration at 24 h for Nc1nccn2c1c(-c1ccc3ccc(-c4ccccc4)nc3c1)nc2[C@H]1C[C@@H](CN2CCC2)C1 .
90 nM

###

Experiment: Half life in Beagle dog at 2.5 mg/kg, iv
Type: ADME, organism-based, Canis lupus familiaris
Design: dose 2.5 mg/kg, route intravenous
Conditions: in vivo
measure: half-life (min)
Numbers only, in min.

For the compound Nc1nccn2c1c(-c1ccc3ccc(-c4ccccc4)nc3c1)nc2[C@H]1C[C@@H](CN2CCC2)C1 , give its reported half-life.
1140

###

Experiment: Cmax in Sprague-Dawley rat at 50 mg/kg, po
Type: ADME, organism-based
Parameters: dose 50 mg/kg, route oral
Settings: in vivo
measure: Cmax (nM)
Give bare numbers, in nM.

Look up Cmax of Nc1nccn2c1c(-c1ccc3ccc(-c4ccccc4)nc3c1)nc2[C@H]1C[C@@H](CN2CCC2)C1 and report it.
1600
